Just for reference, the RNAGym collection of RNA variant scans (doi:10.7554/elife.90254) is where these values come from.

B1: LINE1-mini (parent)
chain: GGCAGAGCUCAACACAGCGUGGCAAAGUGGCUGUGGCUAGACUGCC

# Variants of: B1
# assay text: self-cleavage, relative activity (ratio to wild type); higher = more cleavage; in vitro, sequencing; the parent is a self-cleaving ribozyme
Kind request: treat 0.1 as inclusive, so self-cleavage at 0.1 or higher is true, anything lower is false.

change: C3U C8U
class: true
--
change: C3U G5C
class: true
--
change: C10U G44A
class: true
--
change: A16C C42G
class: false
--
change: C10A U20A
class: false
--
change: U32G G44A
class: false
--
change: A16C A39U
class: false
--
change: A25U C31A
class: true
--
change: A11U G29C
class: false
--
change: C15G U32A
class: false
--
change: G19A C31U
class: true
--
change: U20C C45G
class: true
--
change: C13G G44U
class: false
--
change: C10U C46G
class: true
--
change: A25U U28A
class: true
--
change: A26G G30A
class: true
--
change: G36U G40U
class: true
--
change: A11C A25U
class: false
--
change: G2C C46A
class: false
--
change: C3U C13G
class: true
--
change: G1C A24U
class: true
--
change: A6C C18U
class: true
--
change: G29A C46A
class: true
--
change: C13G C18A
class: false
--
change: G7U C23G
class: false
--
change: A14C C46U
class: true
--
change: G2A A16C
class: true
--
change: C13G A39U
class: false
--
change: G5A C42G
class: false
--
change: G21A A24C
class: true
--
change: C13A U43A
class: true
--
change: C3A G30C
class: true
--
change: U34G G44C
class: false
--
change: C8A G33U
class: true
--
change: C13U A26U
class: true
--
change: C3G U20C
class: true
--
change: C13U U32C
class: false
--
change: G21U C37U
class: false
--
change: C31U U32G
class: false
--
change: A6G C15A
class: false
--
change: G27C A41G
class: true
--
change: C3U G44U
class: true
--
change: C15A A39G
class: false
--
change: C15G G33U
class: true
--
change: G1A A11U
class: true
--
change: C23G G27U
class: true
--
change: A39U
class: true
--
change: A12U U38A
class: false
--
change: G29C G35C
class: true
--
change: U28G A41C
class: false
--
change: A11U C15A
class: false
--
change: G17U G21A
class: true
--
change: U32C U34C
class: true
--
change: U38G C42A
class: false
--
change: A16U A41U
class: false
--
change: A11G G40C
class: false
--
change: G7C G29U
class: true
--
change: A11G C23U
class: false
--
change: G2A U38C
class: true
--
change: G40C U43G
class: true
--
change: A14U G33C
class: false
--
change: A14G G29C
class: true
--
change: A24C U34G
class: false
--
change: G5C G30U
class: true
--
change: C13A C15G
class: false
--
change: C3U A25G
class: true
--
change: G33U U38C
class: false
--
change: C15A C37A
class: false
--
change: A16U C45G
class: true
--
change: A12C G33C
class: false
--
change: A16G G33U
class: false
--
change: G1U G36C
class: false
--
change: G21U G22U
class: true
--
change: G7U A24G
class: false
--
change: G22A A24U
class: true
--
change: G29U U43C
class: false
--
change: A39G G40C
class: false
--
change: U20G A41G
class: true
--
change: A39U A41G
class: true
--
change: G1C G40U
class: false
--
change: C23A U38A
class: true
--
change: C15A G27U
class: false
--
change: U9G U32A
class: true
--
change: G17A A39G
class: false
--
change: C10A G22U
class: false
--
change: A14G A41U
class: true
--
change: G7U C18G
class: true
--
change: G7C A41C
class: false
--
change: U34A G44C
class: false
